# system-under-test: SmMLCK (Homo sapiens)
# Sequence (Q15746 923-1914): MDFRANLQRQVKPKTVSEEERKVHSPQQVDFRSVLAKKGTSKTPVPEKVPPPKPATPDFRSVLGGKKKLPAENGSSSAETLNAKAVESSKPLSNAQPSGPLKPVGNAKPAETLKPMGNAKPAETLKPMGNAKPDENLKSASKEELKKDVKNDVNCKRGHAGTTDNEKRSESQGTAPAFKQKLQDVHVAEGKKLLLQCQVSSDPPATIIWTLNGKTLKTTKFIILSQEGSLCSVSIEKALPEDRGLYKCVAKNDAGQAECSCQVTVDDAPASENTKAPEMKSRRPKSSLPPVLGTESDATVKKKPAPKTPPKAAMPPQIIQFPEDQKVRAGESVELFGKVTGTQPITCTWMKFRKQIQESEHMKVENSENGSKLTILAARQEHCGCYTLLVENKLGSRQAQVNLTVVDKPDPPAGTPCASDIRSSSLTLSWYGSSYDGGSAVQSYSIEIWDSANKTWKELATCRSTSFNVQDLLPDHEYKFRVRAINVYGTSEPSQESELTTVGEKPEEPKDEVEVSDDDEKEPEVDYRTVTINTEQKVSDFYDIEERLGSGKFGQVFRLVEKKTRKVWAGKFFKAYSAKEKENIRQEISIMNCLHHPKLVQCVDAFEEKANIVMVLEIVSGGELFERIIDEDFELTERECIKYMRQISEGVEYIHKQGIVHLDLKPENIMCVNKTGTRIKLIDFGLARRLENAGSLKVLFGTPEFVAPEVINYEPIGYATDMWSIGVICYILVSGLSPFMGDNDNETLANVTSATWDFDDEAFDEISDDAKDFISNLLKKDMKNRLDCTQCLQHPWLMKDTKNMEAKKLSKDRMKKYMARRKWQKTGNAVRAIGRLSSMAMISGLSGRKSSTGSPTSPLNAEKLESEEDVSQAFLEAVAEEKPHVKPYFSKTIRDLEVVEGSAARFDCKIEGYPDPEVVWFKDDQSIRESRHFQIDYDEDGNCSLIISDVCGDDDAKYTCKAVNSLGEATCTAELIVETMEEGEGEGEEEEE
# assay-comment: Kinase profiling SmMLCK
# Assay type: biochemical
# condition-notes: 100 micromolar inhibitor concentration; 100 is no change
Give measured residual kinase activity, SmMLCK for each item. Keep answers brief.
Answers are plain numbers.

# count of solved cases: 3
[
  {
    "compound-structure-string": "O=C(Nc1nc2ccc(C(F)(F)F)cc2s1)c1ccccc1",
    "system-under-test": "SmMLCK (Homo sapiens)",
    "measured-number": 89
  },
  {
    "compound-structure-string": "COc1ccc2nc(NC(=O)c3ccccc3)sc2c1",
    "system-under-test": "SmMLCK (Homo sapiens)",
    "measured-number": 75
  },
  {
    "compound-structure-string": "COc1ccc2sc(NC(=O)c3cccc(C(N)=O)c3)nc2c1",
    "system-under-test": "SmMLCK (Homo sapiens)",
    "measured-number": 83
  }
]

Here is the next item to consider.
Look up residual kinase activity, SmMLCK of O=C(Nc1nc2ccc(O)cc2s1)c1ccccc1 and report it. 15

###

# system-under-test: IKKb (Homo sapiens)
# Sequence (O14920 whole entry, species assumed): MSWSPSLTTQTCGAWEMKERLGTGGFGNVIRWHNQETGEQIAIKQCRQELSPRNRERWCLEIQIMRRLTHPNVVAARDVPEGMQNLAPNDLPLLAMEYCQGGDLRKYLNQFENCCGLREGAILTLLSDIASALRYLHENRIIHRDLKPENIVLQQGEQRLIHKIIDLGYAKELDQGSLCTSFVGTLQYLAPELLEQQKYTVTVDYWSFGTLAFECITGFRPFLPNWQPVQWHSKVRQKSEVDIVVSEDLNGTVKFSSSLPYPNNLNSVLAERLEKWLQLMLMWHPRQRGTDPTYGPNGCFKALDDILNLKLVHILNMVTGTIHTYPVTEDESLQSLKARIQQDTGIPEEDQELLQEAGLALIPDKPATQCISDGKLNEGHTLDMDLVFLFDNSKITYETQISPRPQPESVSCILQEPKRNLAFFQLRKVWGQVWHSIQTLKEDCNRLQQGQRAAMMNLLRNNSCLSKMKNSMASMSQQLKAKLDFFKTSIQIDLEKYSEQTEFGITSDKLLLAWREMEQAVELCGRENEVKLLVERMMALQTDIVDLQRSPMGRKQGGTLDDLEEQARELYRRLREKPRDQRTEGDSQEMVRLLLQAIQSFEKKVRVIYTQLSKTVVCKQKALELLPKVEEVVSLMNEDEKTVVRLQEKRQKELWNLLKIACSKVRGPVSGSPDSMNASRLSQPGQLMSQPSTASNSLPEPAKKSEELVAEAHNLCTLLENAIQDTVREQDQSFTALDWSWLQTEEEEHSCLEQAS
# assay-comment: Kinase profiling IKKb
# Format: biochemical
# condition-notes: 100 micromolar inhibitor concentration; 100 is no change
quantity-name: residual kinase activity, IKKb
Answers are plain numbers.

# count of solved cases: 4
[
  {
    "compound-structure-string": "O=C(Nc1nc2cc(O)ccc2s1)c1ccncc1",
    "system-under-test": "IKKb (Homo sapiens)",
    "measured-number": 80
  },
  {
    "compound-structure-string": "O=C(Nc1nc2cc(O)ccc2s1)c1ccccn1",
    "system-under-test": "IKKb (Homo sapiens)",
    "measured-number": 88
  },
  {
    "compound-structure-string": "O=C(Nc1nc2ccc(O)cc2s1)c1ccccn1",
    "system-under-test": "IKKb (Homo sapiens)",
    "measured-number": 84
  },
  {
    "compound-structure-string": "O=C(Nc1nc2ccc(O)cc2s1)c1ccncc1",
    "system-under-test": "IKKb (Homo sapiens)",
    "measured-number": 82
  }
]

# batch size: 5; output residual kinase activity, IKKb per entry
1. O=C(Nc1nc2ccc(O)cc2s1)c1cccnc1
2. O=C(Nc1nc2ccc(O)cc2s1)c1ccccc1
3. CC(=O)Nc1nc2cc(C)ccc2s1
4. O=C(Nc1nc2cc(O)ccc2s1)c1cccnc1
5. CC(=O)Nc1nc2ccccc2s1

1: 63; 2: 87; 3: 59; 4: 81; 5: 75

###

# system-under-test: EPH-B1 (Homo sapiens)
# Sequence (P54762 18-984): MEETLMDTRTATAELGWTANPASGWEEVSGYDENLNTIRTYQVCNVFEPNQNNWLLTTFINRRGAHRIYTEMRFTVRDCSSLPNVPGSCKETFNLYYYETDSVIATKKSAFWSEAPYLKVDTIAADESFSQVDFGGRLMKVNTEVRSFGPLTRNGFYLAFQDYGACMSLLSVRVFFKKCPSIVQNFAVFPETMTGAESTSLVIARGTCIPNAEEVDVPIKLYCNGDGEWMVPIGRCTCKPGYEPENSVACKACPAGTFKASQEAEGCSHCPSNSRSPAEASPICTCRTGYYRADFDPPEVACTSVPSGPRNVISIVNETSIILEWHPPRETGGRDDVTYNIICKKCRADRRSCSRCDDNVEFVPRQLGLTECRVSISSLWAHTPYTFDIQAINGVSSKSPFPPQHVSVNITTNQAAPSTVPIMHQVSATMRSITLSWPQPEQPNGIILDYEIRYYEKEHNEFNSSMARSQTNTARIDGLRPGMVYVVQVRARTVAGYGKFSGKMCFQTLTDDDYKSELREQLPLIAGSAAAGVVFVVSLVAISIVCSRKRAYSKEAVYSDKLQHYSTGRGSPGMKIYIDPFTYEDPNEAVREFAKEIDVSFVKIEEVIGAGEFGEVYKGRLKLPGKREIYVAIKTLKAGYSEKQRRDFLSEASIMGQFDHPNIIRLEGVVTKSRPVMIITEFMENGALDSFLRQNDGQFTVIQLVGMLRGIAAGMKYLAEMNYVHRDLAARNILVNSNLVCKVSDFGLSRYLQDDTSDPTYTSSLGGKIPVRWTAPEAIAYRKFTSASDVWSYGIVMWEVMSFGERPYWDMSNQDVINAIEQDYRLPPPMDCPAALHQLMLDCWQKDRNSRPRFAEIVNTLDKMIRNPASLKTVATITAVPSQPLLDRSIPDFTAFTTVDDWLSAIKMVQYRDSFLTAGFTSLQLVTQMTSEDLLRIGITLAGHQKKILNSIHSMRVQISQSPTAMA
# assay-comment: Kinase profiling EPH-B1
# Assay type: biochemical
# condition-notes: 100 micromolar inhibitor concentration; 100 is no change; read-out: residual kinase activity, EPH-B1
quantity-name: remaining activity at 100 µM (%)
Answers are plain numbers, in %.

# count of solved cases: 4
[
  {
    "molecule": "CC(=O)Nc1nc2cc(F)ccc2s1 [Compound 03-77]",
    "value-unit": "%",
    "remaining activity at 100 µM": 103
  },
  {
    "molecule": "CC(=O)Nc1nc2ccc(C(F)(F)F)cc2s1 [Compound 01-90]",
    "value-unit": "%",
    "remaining activity at 100 µM": 91
  },
  {
    "molecule": "CC(=O)Nc1nc2ccc(O)cc2s1 [Compound 01-71]",
    "value-unit": "%",
    "remaining activity at 100 µM": 86
  },
  {
    "molecule": "CC(=O)Nc1nc2ccc(C#N)cc2s1 [Compound 01-94]",
    "value-unit": "%",
    "remaining activity at 100 µM": 94
  }
]

# batch size: 2; output remaining activity at 100 µM per entry
1. COc1ccc2sc(NC(C)=O)nc2c1 [Compound 03-21]
2. CC(=O)Nc1nc2cc(C(F)(F)F)ccc2s1 [Compound 03-73]

1. 99
2. 114

###

# system-under-test: UniProt:Q96RR4
# Sequence (Q96RR4 whole entry, species assumed): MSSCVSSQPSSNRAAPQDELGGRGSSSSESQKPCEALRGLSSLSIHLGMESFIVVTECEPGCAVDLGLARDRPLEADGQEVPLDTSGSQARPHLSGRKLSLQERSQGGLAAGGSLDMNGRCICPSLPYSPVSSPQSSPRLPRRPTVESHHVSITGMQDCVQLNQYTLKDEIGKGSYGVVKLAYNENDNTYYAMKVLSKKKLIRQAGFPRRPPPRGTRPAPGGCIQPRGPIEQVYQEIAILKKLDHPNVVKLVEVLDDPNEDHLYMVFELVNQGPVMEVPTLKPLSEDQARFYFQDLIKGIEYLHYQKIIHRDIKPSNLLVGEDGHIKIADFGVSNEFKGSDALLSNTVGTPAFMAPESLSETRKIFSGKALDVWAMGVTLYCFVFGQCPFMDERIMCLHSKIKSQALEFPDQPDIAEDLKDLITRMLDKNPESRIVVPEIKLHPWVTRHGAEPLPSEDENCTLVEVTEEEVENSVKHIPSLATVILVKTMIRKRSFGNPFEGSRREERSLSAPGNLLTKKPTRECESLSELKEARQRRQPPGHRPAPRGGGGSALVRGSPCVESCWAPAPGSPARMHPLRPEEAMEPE
# assay-comment: Kinase profiling CAMKKb
# Format: biochemical
# condition-notes: 100 micromolar inhibitor concentration; 100 is no change
# cutoff 70 applies to residual kinase activity, CAMKKb; >= gives yes, < gives no

Consider the worked cases shown below.
[
  {
    "compound-structure-string": "CC(=O)Nc1nc2ccc(F)cc2s1",
    "system-under-test": "UniProt:Q96RR4",
    "group": "no"
  },
  {
    "compound-structure-string": "O=C(Nc1nc2ccc(C(F)(F)F)cc2s1)c1ccccc1",
    "system-under-test": "UniProt:Q96RR4",
    "group": "yes"
  }
]

With those in mind, consider the next molecule.
Confirm if residual kinase activity, CAMKKb reported for the molecule O=C(Nc1nc2cc(O)ccc2s1)c1ccccc1 is 70 or above. no

###

# system-under-test: UniProt Q02750
# Sequence (Q02750 whole entry, species assumed): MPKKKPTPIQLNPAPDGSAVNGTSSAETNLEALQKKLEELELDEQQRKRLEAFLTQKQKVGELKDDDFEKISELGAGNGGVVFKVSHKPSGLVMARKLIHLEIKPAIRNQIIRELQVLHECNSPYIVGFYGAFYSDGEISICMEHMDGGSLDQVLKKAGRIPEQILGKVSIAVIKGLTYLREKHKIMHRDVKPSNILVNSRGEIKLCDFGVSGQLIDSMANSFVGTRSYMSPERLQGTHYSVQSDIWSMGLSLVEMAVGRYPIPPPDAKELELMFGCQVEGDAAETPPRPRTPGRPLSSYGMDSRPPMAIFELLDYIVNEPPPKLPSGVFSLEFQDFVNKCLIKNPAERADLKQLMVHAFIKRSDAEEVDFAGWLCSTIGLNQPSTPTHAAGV
# assay-comment: Kinase profiling MKK1
# Assay type: biochemical
# condition-notes: 100 micromolar inhibitor concentration; 100 is no change
Classify by residual kinase activity, MKK1. Ranges: class 1 (below 70), class 2 (70 to below 90), class 3 (90 or more)

Consider the worked cases shown below.
[
  {
    "molecule": "O=C(Nc1nc2ccc(O)cc2s1)c1ccccn1",
    "system-under-test": "UniProt Q02750",
    "group": "class 2"
  },
  {
    "molecule": "CC(=O)Nc1nc2cc(C)ccc2s1",
    "system-under-test": "UniProt Q02750",
    "group": "class 2"
  },
  {
    "molecule": "COC(=O)c1cccc(C(=O)Nc2nc3cc(OC)ccc3s2)c1",
    "system-under-test": "UniProt Q02750",
    "group": "class 3"
  },
  {
    "molecule": "O=C(Nc1nc2ccc(O)cc2s1)c1cccnc1",
    "system-under-test": "UniProt Q02750",
    "group": "class 1"
  },
  {
    "molecule": "N#Cc1ccc2nc(NC(=O)c3ccccc3)sc2c1",
    "system-under-test": "UniProt Q02750",
    "group": "class 1"
  },
  {
    "molecule": "CC(=O)Nc1cccc(C(=O)Nc2nc3ccc(O)cc3s2)c1",
    "system-under-test": "UniProt Q02750",
    "group": "class 1"
  },
  {
    "molecule": "O=C(Nc1nc2ccc(O)cc2s1)c1ccncc1",
    "system-under-test": "UniProt Q02750",
    "group": "class 2"
  },
  {
    "molecule": "CC(=O)Nc1nc2ccc(F)cc2s1",
    "system-under-test": "UniProt Q02750",
    "group": "class 2"
  },
  {
    "molecule": "O=C(Nc1nc2ccc(O)cc2s1)c1ccccc1",
    "system-under-test": "UniProt Q02750",
    "group": "class 1"
  },
  {
    "molecule": "COc1ccc2sc(NC(=O)c3cccc(C(N)=O)c3)nc2c1",
    "system-under-test": "UniProt Q02750",
    "group": "class 3"
  }
]

Quick check: band for O=C(Nc1nc2ccc(F)cc2s1)c1ccccc1 class 3

Quick check: band for O=C(Nc1nc2cc(O)ccc2s1)c1ccccc1 class 1

Quick check: band for CC(=O)NC(C)C(=O)Nc1nc2ccc(C(F)(F)F)cc2s1 (stereo not drawn) class 2

Quick check: band for CC(=O)Nc1ccccc1C(=O)Nc1nc2ccc(O)cc2s1 class 3

Quick check: band for O=C(Nc1nc2cc(O)ccc2s1)c1ccccn1 class 3

Quick check: band for COc1ccc2nc(NC(=O)c3ccccc3)sc2c1 class 3
